# System: EGFR L858R (Homo sapiens, UniProt P00533, L858R)
# Construct: purchased SignalChem E10-122BG
# Sequence (P00533 25-1210 L858R): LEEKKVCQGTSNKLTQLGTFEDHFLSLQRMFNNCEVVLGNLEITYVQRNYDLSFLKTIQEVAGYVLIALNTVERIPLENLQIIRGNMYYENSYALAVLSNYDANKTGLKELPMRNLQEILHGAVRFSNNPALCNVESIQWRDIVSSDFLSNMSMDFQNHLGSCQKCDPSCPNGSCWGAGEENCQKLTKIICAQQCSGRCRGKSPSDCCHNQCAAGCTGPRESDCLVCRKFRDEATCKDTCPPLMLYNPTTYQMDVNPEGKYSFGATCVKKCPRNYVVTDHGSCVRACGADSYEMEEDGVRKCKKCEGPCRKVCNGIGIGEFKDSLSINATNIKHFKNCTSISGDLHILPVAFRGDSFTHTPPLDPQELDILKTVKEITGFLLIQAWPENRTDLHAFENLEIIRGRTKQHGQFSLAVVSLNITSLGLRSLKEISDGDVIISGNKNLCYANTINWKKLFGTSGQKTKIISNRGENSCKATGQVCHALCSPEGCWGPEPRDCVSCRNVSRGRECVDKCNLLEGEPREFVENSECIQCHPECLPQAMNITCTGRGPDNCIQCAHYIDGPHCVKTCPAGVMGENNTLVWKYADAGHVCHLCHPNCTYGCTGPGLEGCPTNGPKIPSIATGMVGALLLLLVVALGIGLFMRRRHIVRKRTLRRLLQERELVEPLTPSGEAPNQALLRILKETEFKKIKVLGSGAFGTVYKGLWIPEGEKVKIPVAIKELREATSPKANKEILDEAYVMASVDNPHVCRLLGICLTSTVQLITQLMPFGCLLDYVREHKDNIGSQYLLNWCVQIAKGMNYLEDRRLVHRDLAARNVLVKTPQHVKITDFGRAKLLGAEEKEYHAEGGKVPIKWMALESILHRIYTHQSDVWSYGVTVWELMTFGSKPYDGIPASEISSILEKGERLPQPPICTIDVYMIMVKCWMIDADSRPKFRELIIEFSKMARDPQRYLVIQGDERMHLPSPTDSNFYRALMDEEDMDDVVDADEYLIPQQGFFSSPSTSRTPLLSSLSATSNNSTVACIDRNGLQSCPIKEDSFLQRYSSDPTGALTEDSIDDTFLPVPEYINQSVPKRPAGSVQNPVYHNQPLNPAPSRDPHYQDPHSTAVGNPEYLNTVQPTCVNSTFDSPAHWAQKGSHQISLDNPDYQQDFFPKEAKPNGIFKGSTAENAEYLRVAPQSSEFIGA
# Assay protocol: Biochemical EGFR inhibition assay (Caliper mobility shift), EGFR L858R
# Test context: biochemical Caliper mobility shift assay, EGFR L858R enzyme; read-out: Enz EGFR L858R IC50
Some compounds, each annotated with its measured IC50.

Below are worked cases with known answers.
CN(C)C(=O)COc1cc(-c2cnn(C)c2)cc2ncnc(Nc3ccc4ncsc4c3F)c12 [Example 274] ... ≤ 10 nM
C[C@@H]1OC[C@@H]1Oc1cc(-c2cnn(C)c2)cc2ncnc(Nc3ccc4ncsc4c3)c12 (racemic) [Example 9] ... ≤ 10 nM
COc1nn(C)cc1-c1cc(OC2CCN(C)CC2)c2c(Nc3ccc4ncsc4c3F)ncnc2c1 [Example 320] ... ≤ 10 nM
C[C@@H]1CN(c2cc(O[C@H](C)C3COC3)c3c(Nc4ccc5ncsc5c4F)ncnc3c2)CCN1C (single isomer, unassigned) [Example 102] ... ≤ 10 nM
COC[C@@H](C)Oc1cc(N2CCN(C)C[C@H]2C)cc2ncnc(Nc3ccc4ncsc4c3)c12 (single isomer, unassigned) [Example 211] ... > 50.1 nM

Prompt: Report measured IC50; entry is C[C@H](Oc1cc(-c2cnn(C)c2)cc2ncnc(Nc3ccc4ncsc4c3)c12)C1CC1 [Example 66]
Completion: ≤ 10 nM

Prompt: Give me measured IC50, please, for this compound: C[C@@H](Oc1cc(N2CCN(C)[C@@H]3C[C@@H]32)cc2ncnc(Nc3ccc4ncsc4c3)c12)C1COC1 (single isomer, unassigned) [Example 299]
Completion: 10.1 to 50 nM
